# Tested on: KM12
# Experiment description: NCI tumour cell line growth inhibition, 48 h
The source made the active and inactive calls. Rule as the data show it: active = GI50 up to about 1.1 µM and inactive = higher.
Readout type: GI50

Study these solved cases before continuing.
Compound | Readout type | Result
COc1ccc2c(c1)C1=NCCN(C)c3ccc([N+](=O)[O-])c(c31)N2 | GI50 | 1.21 µM (inactive)
Cc1cccc(Nc2nc(NNC(=O)Cc3ccccc3)nc(NNC(=O)c3ccncc3)n2)c1 | GI50 | > 10 µM (inactive)
O=S(=O)(N/N=C/c1cccc(Cl)c1Cl)c1ccccc1 | GI50 | > 100 µM (inactive)
O=c1[nH]c(=O)n([C@H]2C[C@H](O)[C@@H](CO)O2)cc1Br [BROXURIDINE] | GI50 | > 100 µM (inactive)

Problem: Field: GI50 (KM12). Entry: CCOC(=O)CC1Nc2ccccc2C12CCc1c([nH]c3ccccc13)C2C(=O)OCC (stereo not given)
Result: 14.8 µM (inactive)

---

# Tested on: MDA-MB-435
# Experiment description: NCI tumour cell line growth inhibition, 48 h
Active and inactive are the calls of the source. No stated cut-off is given here; in the data, active = GI50 up to about 1.1 µM and inactive = higher.
// classify into 1.0 = active, 0.0 = inactive

These solved cases illustrate the format of a correct answer.
Molecule | Assigned label
CN(N=O)C(=O)NNC(=O)N(C)N=O | 0.0
O=C1C(c2cnc3ccccc3n2)=C(O)c2ccccc21 | 0.0
CCCCCCCc1ccc(-c2nnc(/N=N/c3ccc(OCCCCC)cc3)s2)s1 | 0.0

Problem: Hey, what did the test say about O=C1C=CC(O)C2C1CC13SSC4(CC5C(=O)C=CC(O)C5N4C1=O)C(=O)N23 (configuration not stated) ?
Result: 1.0

Problem: Hey, what did the test say about Cc1ccc(S(=O)(=O)N/N=C2/CC3CCC4CC2CC34)cc1 (configuration not stated) ?
Result: 0.0

Problem: Hey, what did the test say about CCNC(=S)Nc1c(C#N)c2n(c1C(=O)OCC)CCCCC2 ?
Result: 0.0

Problem: Hey, what did the test say about Cc1cccc(/C=N/NC(=S)Nc2ccc(Cl)cc2)n1 ?
Result: 1.0

Problem: Hey, what did the test say about COc1ccccc1Nc1nc(N)nc(N)c1N=O ?
Result: 0.0

Problem: Hey, what did the test say about COc1ccc2c(c1)CN1C(=N2)CSC1c1c(Cl)cccc1[N+](=O)[O-] (configuration not stated) ?
Result: 0.0

Problem: Hey, what did the test say about CN(C)CCNC(=O)c1ccc2nc3c(nc2c1)C(=O)c1ccccc1-3 ?
Result: 0.0

Problem: Hey, what did the test say about COc1ccc(C2=C(N)c3c(OC)cccc3C2=O)cc1 ?
Result: 0.0

Problem: Hey, what did the test say about c1cnn(C23C4C5C6C4C2C6C53)c1 (configuration not stated) ?
Result: 0.0

---

# System: ACHN
# Experiment description: NCI tumour cell line growth inhibition, 48 h
The source made the active and inactive calls. No stated cut-off is given here; in the data, active = GI50 up to about 1.1 µM and inactive = higher.
// classify into T = active, F = inactive

Molecule | Assigned label
CCCCCCCCCC(=O)Oc1cccc2onc(C)c12 | F
N#Cc1cn(-c2c3ccccc3nc3ccccc23)c(=O)[nH]c1=O | F
O=C1/C(=C\c2ccc([N+](=O)[O-])cc2)CS(=O)(=O)C/C1=C/c1ccc([N+](=O)[O-])cc1 | T
NC1=NN(c2ccccc2)C2(O)c3ccncc3C3=NN(c4ccccc4)C(=O)C132 (centres undefined) | F
COc1ccc(C2C(C(=O)O)=C(COC(C)=O)Oc3cc4c(cc32)OCO4)cc1 (centres undefined) | F
CCP(=O)(CC)C(Cl)Cl | F
COc1ccc(C)cc1-c1cc(Sc2ccccc2)c(-c2cc(C)ccc2OC)o1 | F
CC1(Sc2ccccc2)CN(Cc2ccccc2)C1=O (centres undefined) | F

Problem: Hey, what did the test say about Cc1cccc(C)c1NC(=O)C(=O)Nn1c(NN)nc2ccccc2c1=O ?
Result: F

Problem: Hey, what did the test say about c1ccc(/N=c2/sc3ccccc3s/c2=N/c2ccccc2)cc1 ?
Result: F

Problem: Hey, what did the test say about COc1ccc(C2SCC(=O)N2c2ccc(-n3c(-c4ccccc4)nc4ccccc4c3=O)cc2)cc1 (centres undefined) ?
Result: F

Problem: Hey, what did the test say about C=C(C(=O)OC)c1cc2ccccc2n1S(=O)(=O)c1ccccc1 ?
Result: F

Problem: Hey, what did the test say about Cc1ccc2oc(=O)c(C(=O)Nc3nc(C45CC6CC(CC(C6)C4)C5)cs3)cc2c1 ?
Result: F

Problem: Hey, what did the test say about CCCNC(=O)CCC(C)[C@H]1CCC2C3C(C[C@H](OC(C)=O)[C@@]21C)[C@@]1(C)CCC2(C[C@H]1C[C@H]3OC(C)=O)OOC1(CCC(C)CC1)OO2 (some centres undefined) ?
Result: F

Problem: Hey, what did the test say about COC(CN(C(C)=O)C1CCC2(SCCS2)c2[nH]c3ccccc3c21)OC (centres undefined) ?
Result: F

Problem: Hey, what did the test say about COC(=O)C1=C(O)c2cc(OC)c(OC)cc2C(c2ccc(OC)c(OC)c2)C1 (centres undefined) ?
Result: F

Problem: Hey, what did the test say about COc1cc(OC)cc(-n2c(N)c(-c3nc4ccccc4s3)c3ccc([N+](=O)[O-])cc3c2=O)c1 ?
Result: F

Problem: Hey, what did the test say about Cc1c(O)c(OC2OC(CO)C(O)C(O)C2O)cc2c1C=C[C@@H]1[C@@]2(C)C(=O)C[C@]2(C)[C@@H]([C@@](C)(O)C(O)/C=C/C(C)(C)O)[C@H](O)C[C@@]12C (some centres undefined) ?
Result: F

Problem: Hey, what did the test say about COc1cc(CCCl)c(CC2=NCCc3cc(OC)c(OC)cc32)cc1OC ?
Result: F
